# Target Under Test: human SGLT2 (Homo sapiens, UniProt P31639)
# Construct: vector pcDNA3.1+hygro (Invitrogen)
# Sequence (P31639 1-672): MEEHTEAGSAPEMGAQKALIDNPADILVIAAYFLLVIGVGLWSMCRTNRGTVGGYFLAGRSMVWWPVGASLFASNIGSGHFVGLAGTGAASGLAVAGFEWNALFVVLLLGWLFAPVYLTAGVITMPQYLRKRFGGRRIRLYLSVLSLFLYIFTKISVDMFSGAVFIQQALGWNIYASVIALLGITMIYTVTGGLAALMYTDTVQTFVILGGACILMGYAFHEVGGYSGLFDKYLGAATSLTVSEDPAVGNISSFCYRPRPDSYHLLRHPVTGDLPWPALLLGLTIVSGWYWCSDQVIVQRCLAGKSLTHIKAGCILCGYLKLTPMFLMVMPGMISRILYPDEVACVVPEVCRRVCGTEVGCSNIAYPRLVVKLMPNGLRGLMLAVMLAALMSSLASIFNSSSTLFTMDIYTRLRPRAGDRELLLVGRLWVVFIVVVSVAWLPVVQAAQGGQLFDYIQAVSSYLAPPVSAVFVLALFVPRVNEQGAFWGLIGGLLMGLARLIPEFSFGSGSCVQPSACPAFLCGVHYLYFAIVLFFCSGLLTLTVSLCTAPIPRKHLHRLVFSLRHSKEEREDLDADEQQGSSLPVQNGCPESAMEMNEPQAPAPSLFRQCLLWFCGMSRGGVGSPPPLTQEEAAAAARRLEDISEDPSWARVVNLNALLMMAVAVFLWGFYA
# Assay Text: Inhibition test for sodium-dependent sugar uptake in CHO-k1 cells stably expressing human SGLT2
# Run Parameters: 1 mM [14C]methyl α-D-glucopyranoside uptake, 37° C., 1 hour
Label key: yes means IC50 under 10 nM; no means IC50 of 10 nM or more.

Chemical String: COc1ccc(Cc2cc([C@@H]3S[C@H](CO)[C@@H](O)[C@H](O)[C@H]3O)c(O)cc2C)cc1
Category Label: no
//
Chemical String: COc1ccc(Cc2cc([C@@H]3S[C@H](CO)[C@@H](O)[C@H](O)[C@H]3O)c(O)cc2Cl)cc1
Category Label: no
//
Chemical String: CCc1ccc(Cc2cc([C@@H]3S[C@H](CO)[C@@H](O)[C@H](O)[C@H]3O)c(O)cc2Cl)cc1
Category Label: yes
//
Chemical String: CCc1ccc(Cc2cc([C@@H]3S[C@H](CO)[C@@H](O)[C@H](O)[C@H]3O)c(O)cc2C)cc1
Category Label: no
//
Chemical String: Cc1ccc(Cc2cc([C@@H]3S[C@H](CO)[C@@H](O)[C@H](O)[C@H]3O)c(O)cc2C)cc1
Category Label: no
//
Chemical String: Cc1ccc(Cc2cc([C@@H]3S[C@H](CO)[C@@H](O)[C@H](O)[C@H]3O)c(O)cc2Cl)cc1
Category Label: no

###

# Target Under Test: human SGLT1 (Homo sapiens, UniProt P13866)
# Construct: vector pCMV-tag5A (Stratagene)
# Sequence (P13866 whole entry): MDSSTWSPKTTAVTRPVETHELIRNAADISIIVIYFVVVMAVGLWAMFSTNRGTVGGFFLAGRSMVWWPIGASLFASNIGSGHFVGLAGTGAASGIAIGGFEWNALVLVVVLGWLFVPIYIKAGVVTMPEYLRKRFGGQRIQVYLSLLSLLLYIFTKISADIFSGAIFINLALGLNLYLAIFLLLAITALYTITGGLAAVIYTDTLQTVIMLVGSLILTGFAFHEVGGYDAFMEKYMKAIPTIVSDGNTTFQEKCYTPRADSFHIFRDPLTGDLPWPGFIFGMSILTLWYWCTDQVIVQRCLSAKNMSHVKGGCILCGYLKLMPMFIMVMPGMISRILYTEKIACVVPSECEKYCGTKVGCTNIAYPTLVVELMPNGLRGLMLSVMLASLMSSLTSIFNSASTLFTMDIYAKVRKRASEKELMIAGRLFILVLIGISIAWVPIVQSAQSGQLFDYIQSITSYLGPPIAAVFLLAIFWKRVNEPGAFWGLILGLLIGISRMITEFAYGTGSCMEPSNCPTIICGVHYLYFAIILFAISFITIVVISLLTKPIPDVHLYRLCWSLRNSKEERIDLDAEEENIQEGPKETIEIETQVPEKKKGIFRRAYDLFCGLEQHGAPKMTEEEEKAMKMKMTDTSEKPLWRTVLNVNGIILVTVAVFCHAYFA
# Assay Text: Inhibition test for sodium-dependent sugar uptake in CHO-k1 cells stably expressing human SGLT1
# Run Parameters: 0.1 mM [14C]methyl α-D-glucopyranoside uptake, 37° C., 30 minutes

Chemical String: COc1ccc(Cc2cc([C@@H]3S[C@H](CO)[C@@H](O)[C@H](O)[C@H]3O)c(O)cc2C)cc1
Target Under Test: human SGLT1 (Homo sapiens, UniProt P13866)
IC50 (nM): 32

Chemical String: COc1ccc(Cc2cc([C@@H]3S[C@H](CO)[C@@H](O)[C@H](O)[C@H]3O)c(O)cc2Cl)cc1
Target Under Test: human SGLT1 (Homo sapiens, UniProt P13866)
IC50 (nM): 33

Chemical String: CCc1ccc(Cc2cc([C@@H]3S[C@H](CO)[C@@H](O)[C@H](O)[C@H]3O)c(O)cc2C)cc1
Target Under Test: human SGLT1 (Homo sapiens, UniProt P13866)
IC50 (nM): 32

Chemical String: CSc1ccc(Cc2cc([C@@H]3S[C@H](CO)[C@@H](O)[C@H](O)[C@H]3O)c(O)cc2C)cc1
Target Under Test: human SGLT1 (Homo sapiens, UniProt P13866)
IC50 (nM): 27

###

# Target Under Test: human SGLT1 (Homo sapiens, UniProt P13866)
# Construct: expressed in transfected cells; vector pCMV-tag5A (Stratagene)
# Assay Text: Inhibition test for sodium-dependent sugar uptake in CHO-k1 cells stably expressing human SGLT1
# Format: cell-based
# Run Parameters: 0.1 mM [14C]methyl α-D-glucopyranoside uptake, 37° C., 30 minutes
# key: entry, value: IC50
Result Type: IC50 (nM)

Chemical String: Cc1ccc(Cc2cc([C@@H]3S[C@H](CO)[C@@H](O)[C@H](O)[C@H]3O)c(O)cc2Cl)cc1
Result Type: IC50
Unit Label: nM
Assay Result: 19

Chemical String: CCc1ccc(Cc2cc([C@@H]3S[C@H](CO)[C@@H](O)[C@H](O)[C@H]3O)c(O)cc2Cl)cc1
Result Type: IC50
Unit Label: nM
Assay Result: 29

Chemical String: Cc1ccc(Cc2cc([C@@H]3S[C@H](CO)[C@@H](O)[C@H](O)[C@H]3O)c(O)cc2C)cc1
Result Type: IC50
Unit Label: nM
Assay Result: 17
